Recorded melting point, one value per entry.
METRIC_NAME: melting point

| COMPOUND | TEST_RESULT |
| --- | --- |
| CCCCc1ccc(C(=O)Oc2ccc(C#N)c(F)c2)nc1 | 45.1 to 46.1 °C |
| O=c1oc(=Cc2ccccc2)c(=Cc2ccccc2)o1 | 115 °C |
| O=C(C1=C(O)C(=O)N(C2CC2)C1)c1ccc(Cc2ccc(F)cc2)o1 | 158 to 159 °C |
| C=C(CCC(C)C1CCC2(C)C3CCC4C(C)(C)C(O)CCC45CC35CCC12C)C(C)C (centres undefined) | 123 to 124 °C |
| Cc1c(C(F)(F)F)cnn(-c2cc(OCC3CCCCC3)c(Cl)cc2F)c1=O | 90.2 °C |
| CC(=O)Nc1ccc(S(=O)(=O)N2CCN(c3c(F)cc4c(=O)c(C(=O)O)cn(CC(C)C)c4c3F)CC2)cc1 | 181 to 183 °C |
| Cc1sc2c(c1C)C(c1ccc(Cl)cc1)=NC(CC(=O)N1CCOCC1)c1nnc(C)n1-2 (centres undefined) | 252 to 254 °C |
| CCOC(=O)CCN(CC(N)=O)C(=O)Cn1cc(C)c(=O)[nH]c1=O | 207 to 208 °C |
| C=CCN1C2CCC1C1CCC2N1C(c1ccc(C(=O)N2CCCCC2)cc1)c1cccc(O)c1 (centres undefined) | 133 to 135 °C |
| Cc1cc2c(s1)CCCN(CCN1CCN(c3ncccn3)CC1)C2=O | 137 to 139 °C |
| CC(C)N=C(NC(C)C)ON1C(C)(C)CC(O)CC1(C)C | 118 to 123 °C |
| CCOC(=O)c1ncn(-c2nncs2)c1S | 182 to 185 °C |
| Cc1ccc(-c2ccccc2C#N)nc1 | 80 to 81 °C |
| Cc1ccc2nc(N3CCN(c4ncccc4C(F)(F)F)CC3)[nH]c2c1 | 216 to 217 °C |
| CC(=O)c1cc2c(C(C)=O)c(OCC(O)CNC(C)(C)C)ccc2o1 (centres undefined) | 122 °C |
| CC(C)c1cc(C(C)C)c(CC(=O)NS(=O)(=O)Oc2c(C(C)C)cc(SC#N)cc2C(C)C)c(C(C)C)c1 | 164 to 165 °C |
| O=C(O)c1ccc(-c2ncc(-c3ccc(Cl)cc3)s2)cc1 | > 300 °C |
| C=CCc1c(-c2cc(=O)c3c(O)cc(OCc4ccccc4)cc3o2)ccc(OC)c1O | 234 °C |
| CC(C)(C)OC(=O)N[C@@H](CC(=O)OCc1ccccc1)C(=O)NCCc1ccc(C(=O)OCc2ccccc2)cc1 | 99 to 100 °C |
